Test: xn = mol fraction of the nth substance listed, in the solute-free solvent
Details: 328.15 K; x2 = 0.9
measurement name: solubility (g/100 g solution)
The answer should be a number; do not append a unit.

**Query** Fill in the blank: the reported solubility (g/100 g solution) of CC(=O)OC(c1ccccc1)C(Cl)(Cl)Cl (configuration not stated) + CCO + O is ____.
**Result** 26.4

**Query** Give the measured solubility (g/100 g solution) of O=C(O)c1ccc(C(=O)O)o1 + C1COCCO1 + O .
**Result** 2.11

**Query** Which value of solubility (g/100 g solution) has been reported for O=C(O)c1ccc(C(=O)O)o1 + O + COCCOC in the records?
**Result** 5.32

**Query** Name the recorded solubility (g/100 g solution) for O=C(O)c1ccc(C(=O)O)o1 + O + COCCOCCOC .
**Result** 4.91

**Query** State the recorded solubility (g/100 g solution) for this entry: CC(=O)OC(c1ccccc1)C(Cl)(Cl)Cl (configuration not stated) + CC(C)O + O
**Result** 25.3

**Query** Quick check: solubility (g/100 g solution) of O=C(O)c1ccc(C(=O)O)o1 + C1CCOC1 + O ?
**Result** 4.74

**Query** Reported solubility (g/100 g solution) for CC(=O)OC(c1ccccc1)C(Cl)(Cl)Cl (configuration not stated) + CC(=O)O + O : what is it?
**Result** 42.7

====

Assay: xn = mol fraction of the nth substance listed, in the solute-free solvent
Details: 333.15 K; x2 = 0.5
Give solubility (g/100 g solution) for every item shown.
Hey, just send me the number, nothing else.

**Query** Look at this molecule and give its reported solubility (g/100 g solution). O=C(O)c1ccc(C(=O)O)o1 + O + COCCOC
**Result** 7.45

**Query** Find the recorded solubility (g/100 g solution) belonging to O=C(O)c1ccc(C(=O)O)o1 + C1CCOC1 + O and report it.
**Result** 9.32

**Query** What solubility (g/100 g solution) value was documented for this molecule, O=C(O)c1ccc(C(=O)O)o1 + C1COCCO1 + O ?
**Result** 6.48

**Query** Could you tell me which solubility (g/100 g solution) is on file for O=C(O)c1ccc(C(=O)O)o1 + O + COCCOCCOC ?
**Result** 6.58

====

Assay: xn = mol fraction of the nth substance listed, in the solute-free solvent
Conditions: 298.15 K; x2 = 0.2
Exercise: state measured solubility (g/100 g solution) for each of the compounds provided.

**Query** Bench note: what solubility (g/100 g solution) did COC1=CC(=O)CC(C)C12Oc1c(Cl)c(OC)cc(OC)c1C2=O (stereo unspecified) + CC(C)=O + CC(C)O show?
**Result** 0.55

**Query** Quick one: solubility (g/100 g solution) for O=C1CCc2ccc(OCCCCN3CCN(c4cccc(Cl)c4Cl)CC3)cc2N1 + CCC(C)=O + CCCO ?
**Result** 1.98

**Query** # solubility (g/100 g solution) lookup, item CCCCOc1ccc(C(=O)CCN2CCCCC2)cc1.Cl + CCO + O
**Result** 47.1

**Query** Please give the measured solubility (g/100 g solution) for this compound: CCCCOc1ccc(C(=O)CCN2CCCCC2)cc1.Cl + CCO + CCCCCC
**Result** 8.01

**Query** Field request: solubility (g/100 g solution) | item: O=C1CCc2ccc(OCCCCN3CCN(c4cccc(Cl)c4Cl)CC3)cc2N1 + CCC(C)=O + CC(C)=O
**Result** 1.94

**Query** Which measured solubility (g/100 g solution) value corresponds to O=C1CCc2ccc(OCCCCN3CCN(c4cccc(Cl)c4Cl)CC3)cc2N1 + CCC(C)=O + CCOC(C)=O ?
**Result** 1.37

**Query** Consider the compound CCCCOc1ccc(C(=O)CCN2CCCCC2)cc1.Cl + CO + C1CCOC1 and give its measured solubility (g/100 g solution).
**Result** 12.4

**Query** # get_value(readout='solubility (g/100 g solution)', item= CCCCOc1ccc(C(=O)CCN2CCCCC2)cc1.Cl + CCO + CCOC(C)=O )
**Result** 11.8

**Query** Requested read-out: solubility (g/100 g solution). Entry: COC1=CC(=O)CC(C)C12Oc1c(Cl)c(OC)cc(OC)c1C2=O (stereo unspecified) + CC(=O)CC(C)C + CC(C)O
**Result** 0.441

**Query** Given the entry COC1=CC(=O)CC(C)C12Oc1c(Cl)c(OC)cc(OC)c1C2=O (stereo unspecified) + CCC(C)=O + CC(C)O , report its measured solubility (g/100 g solution).
**Result** 0.557

**Query** // returns reported solubility (g/100 g solution) for input O=C(O)c1ccc(C(=O)O)o1 + C1CCOC1 + O
**Result** 3.93
